# test-target: CaM (Bos taurus)
# Construct: made in house; host or cells: E. coli BL21 (DE3)
# assay-protocol: Pull-down assay with immobilized protein and LSM libraries
# Type: binding, bovine
# experimental-context: H12 library; 1:2 stoichiometry assumed; read-out: Surface mapping KD (apparent)
quantity: Kd (µM)

[I] CC[C@H](C)[C@@H](CC(=O)N[C@H]1CCC[C@@H]1C(=O)N[C@H]1CCC[C@@H]1C(N)=O)NC(=O)[C@H]1CCC[C@@H]1NC(=O)[C@H]1CCC[C@@H]1NC(=O)C[C@@H](NC(=O)[C@H]1CCC[C@@H]1NC(=O)[C@H]1CCC[C@@H]1N)[C@@H](C)CC [H12 II]
[II] C[C@@H](CC(=O)N[C@H]1CCC[C@@H]1C(=O)N[C@H]1CCC[C@@H]1C(N)=O)NC(=O)[C@H]1CCC[C@@H]1NC(=O)[C@H]1CCC[C@@H]1NC(=O)C[C@H](Cc1ccccc1)NC(=O)[C@H]1CCC[C@@H]1NC(=O)[C@H]1CCC[C@@H]1N [H12 FA]
Determine, for I and II , which has the greater value of Kd. # answer = label of selected item II
